Values were extracted from patent US20140154255A1.

Molecular target: unlabeled human VEGF (ELISA coat) (human, UniProt P15692-4 27-191, limits assumed)
Sequence (P15692 other isoform, or with tags, fused parts or gaps limits assumed): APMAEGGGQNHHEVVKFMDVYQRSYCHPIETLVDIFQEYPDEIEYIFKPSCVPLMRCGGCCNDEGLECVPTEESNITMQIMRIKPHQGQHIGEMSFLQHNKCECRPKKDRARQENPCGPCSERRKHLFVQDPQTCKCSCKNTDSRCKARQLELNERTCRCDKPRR
Assay: ELISA overnight, EC50 WT/EC50 mutant
Quantity measured: ELISA o/n binding

Illustrative cases are given below, each with its answer.
>>> observed_result("93 (antibody, human IgG1, V domains shown) VH: EVQLVESGGGLVQPGGSLRLSCAASGYTFTNYGMNWVRQAPGKGLEWVGWINTYTGEPTYAADFKRRFTFSLDTSKSTAYLQMNSLRAEDTAVYYCAKYPEYYGSSHWYFDVWGQGTLVTVSS VL: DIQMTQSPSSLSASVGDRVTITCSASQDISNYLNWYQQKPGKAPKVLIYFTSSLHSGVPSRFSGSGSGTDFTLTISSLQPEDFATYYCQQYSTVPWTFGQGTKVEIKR")
"3.6 fold"
>>> observed_result("T30 K (anti-VEGF IgG) (antibody, V domains shown, copies: 2 + 2) VH: EVQLVESGGGLVQPGGSLRLSCAASGYTFKNYGMNWVRQAPGKGLEWVGWINTYTGEPTYAADFKRRFTFSLDTSKSTAYLQMNSLRAEDTAVYYCAKYPHYYGSSHWYFDVWGQGTLVTVSS VL: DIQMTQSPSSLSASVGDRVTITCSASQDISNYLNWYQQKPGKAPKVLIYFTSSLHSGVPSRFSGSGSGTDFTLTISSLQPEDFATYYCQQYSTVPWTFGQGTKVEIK")
"3.1 fold"
>>> observed_result("91 (antibody, human IgG1, V domains shown) VH: EVQLVESGGGLVQPGGSLRLSCAASGYTFTFYGMNWVRQAPGKGLEWVGWINTYTGEPTYAADFKRRFTFSLDTSKSTAYLQMNSLRAEDTAVYYCAKYPHYYGSSHWYFDVWGQGTLVTVSS VL: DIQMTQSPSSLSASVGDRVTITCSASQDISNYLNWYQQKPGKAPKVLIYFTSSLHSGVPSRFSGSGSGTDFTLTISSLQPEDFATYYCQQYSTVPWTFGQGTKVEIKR")
"0.3 fold"

What ELISA o/n binding value was documented for this binder, N31 W (anti-VEGF IgG) (antibody, V domains shown, copies: 2 + 2) VH: EVQLVESGGGLVQPGGSLRLSCAASGYTFTWYGMNWVRQAPGKGLEWVGWINTYTGEPTYAADFKRRFTFSLDTSKSTAYLQMNSLRAEDTAVYYCAKYPHYYGSSHWYFDVWGQGTLVTVSS VL: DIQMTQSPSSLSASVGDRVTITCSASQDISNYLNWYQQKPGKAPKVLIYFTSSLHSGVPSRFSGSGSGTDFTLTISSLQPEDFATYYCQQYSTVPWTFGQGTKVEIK ?
1.3 fold

What ELISA o/n binding value was documented for this binder, N31 H (anti-VEGF IgG) (antibody, V domains shown, copies: 2 + 2) VH: EVQLVESGGGLVQPGGSLRLSCAASGYTFTHYGMNWVRQAPGKGLEWVGWINTYTGEPTYAADFKRRFTFSLDTSKSTAYLQMNSLRAEDTAVYYCAKYPHYYGSSHWYFDVWGQGTLVTVSS VL: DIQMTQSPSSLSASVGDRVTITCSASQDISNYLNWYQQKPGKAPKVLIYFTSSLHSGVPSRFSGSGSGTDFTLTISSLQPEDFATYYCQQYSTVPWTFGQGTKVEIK ?
1.9 fold
